# System: Orchid thrips (Dichromothrips corbetti)
# experimental protocol: Action on orchid thrips (Dichromothrips corbetti), floral-immersion technique
# Format: in vivo
# condition notes: adult thrips, mortality 72 hours after treatment, read-out: mortality in comparison with untreated controls
# Procedure: Dichromothrips corbetti adults used for bioassay were obtained from a colony maintained continuously under laboratory conditions. For testing purposes, the test compound is diluted in a 1:1 mixture of acetone:water (vol:vol), plus Kinetic® HV at a rate of 0.01% v/v. Thrips potency of each compound was evaluated by using a floral-immersion technique. […] After 3 days, the numbers of live thrips were counted on each petal. The percent mortality was recorded 72 hours after treatment.
What mortality at 500 ppm was measured for each of the following?

Can you share its mortality at 500 ppm? I mean this compound: CC(/C=N/NC(=S)Nc1ccccc1C(C)C)=C\c1cnc(Nc2ccc(OC(F)(F)F)cc2)nc1 [Compound C-1]
≥ 75%

Which mortality at 500 ppm value belongs to CC(/C=N/N=C1\SCC(=O)N1c1ccccc1C(C)C)=C\c1cnc(Nc2ccc(OC(F)(F)F)cc2)nc1 [Compound C-3] ?
≥ 75%

Item CC(/C=N/N=C1\SCC(=O)N1c1ccccc1C(C)C)=C\c1ccc(N(C)c2ccc(OC(F)(F)F)cc2)nc1 [Compound C-12] has what recorded mortality at 500 ppm?
≥ 75%

Hello, the source for this data is patent US20200077658A1, in case you need it.
